biological target: human HSP90 alpha protein (HSP90 N-terminal protein, amino acids 2-236) (Homo sapiens (Human)); experiment: Measurement of HSP90-binding activity (AlphaScreen competitive assay, biotin-labeled geldanamycin); details: concentration inhibiting binding of biotin-labeled geldanamycin (40 nM) to purified HSP90 to 50% of control; read-out: HSP-binding activity IC50
pIC50 listing for selected compounds.
# reply with the number alone; pIC50 is -log10 of concentration in mol/L

Solved entries (count: 6):
CC(C)c1nn(-c2ccc(C(N)=O)c(N[C@H]3CC[C@H](O)CC3)c2)c2nccc(-c3cnc4c(c3)CCCC4)c12 :: 5.92
CCNc1cc(-n2nc(C(C)C)c3c(-n4cnc(-c5cn[nH]c5)c4)ccnc32)ccc1C(N)=O :: 6.38
CC(C)c1nn(-c2ccc(C(N)=O)c(NC3CCC(O)CC3)c2)c2nccc(-n3cnc(-c4cn[nH]c4)c3)c12 (stereo not shown) :: 7.22
CC(C)c1nn(-c2ccc(C(N)=O)c(NC3CCN(C(=O)c4cc(O)nc(O)n4)CC3)c2)c2nccc(-c3cnc4ccccc4c3)c12 :: 6.44
COc1cc(C(N)=O)ccc1-n1nc(C(C)C)c2c(-n3cnc(-c4cccnc4)c3)ccnc21 :: 6.92
CC(C)c1nn(-c2ccc(C(N)=O)c(N[C@H]3CC[C@H](O)CC3)c2)c2nccc(-n3ccnc3)c12 :: 5.73

Exercise: Need pIC50 of CCNc1cc(-n2nc(C(F)(F)F)c3c(-n4cnc(-c5cccnc5)c4)ccnc32)ccc1C(N)=O , thanks.
Key: 6.28

====

test system: SK-BR-3 cells; assay: Measurement of cell growth inhibition (crystal violet staining method); assay type: cell-based; settings: Homo sapiens; breast cancer SK-BR-3 cells, 72 hr culture with test substance
Hi! Just check whether IC50 is below 100 nM. Below gives fulfilled, equal or above gives not fulfilled.

Solved cases below.
CC(C)c1nn(-c2ccc(C(N)=O)c(NC3CCC(O)CC3)c2)c2nccc(-n3cnc(-n4ccnc4)c3)c12 (stereo not shown) :: fulfilled
CC(C)c1nn(-c2ccc(C(N)=O)c(NC(C)(C)C)c2)c2nccc(-n3cnc(-c4cccnc4)c3)c12 :: not fulfilled
COc1cc2ccn(-c3ccc(C#N)c(Nc4ccccc4)c3)c2cc1OC [Comparative Example 3, reference compound] :: not fulfilled

Exercise: Is 100 nM strictly greater than the compound's reported IC50? compound: CCNc1cc(-n2nc(C(F)(F)F)c3c(-n4cnc(-c5cnn(C)c5)c4)ccnc32)ccc1C(N)=O
Key: fulfilled

Exercise: Is 100 nM strictly greater than the compound's reported IC50? compound: Cc1cc(C(N)=O)ccc1-n1nc(C(F)(F)F)c2c(-n3cnc(-c4cnn(C)c4)c3)ccnc21
Key: not fulfilled

Exercise: Is 100 nM strictly greater than the compound's reported IC50? compound: CCCNc1cc(C(N)=O)ccc1-n1nc(C(C)C)c2c(-n3cnc(-c4cnn(C)c4)c3)ccnc21
Key: not fulfilled

====

IC50 listing for selected molecules.
target: human HSP90 alpha protein (HSP90 N-terminal protein, amino acids 2-236) (Homo sapiens (Human)); assay: Measurement of HSP90-binding activity (AlphaScreen competitive assay, biotin-labeled geldanamycin); conditions: concentration inhibiting binding of biotin-labeled geldanamycin (40 nM) to purified HSP90 to 50% of control; read-out: HSP-binding activity IC50
Give a bare numeral; the unit nM is implied.

CCc1cn(-c2ccc(C(N)=O)c(N[C@H]3CC[C@H](O)CC3)c2)c2nccc(-c3cnc4ccccc4c3)c12 :: 120
CCNc1cc(C(N)=O)ccc1-n1nc(C(F)(F)F)c2c(-n3cnc(-c4cnn(CC)c4)c3)ccnc21 :: 190
CC(C)c1nn(-c2ccc(C(N)=O)c(NCCN3CCCC3)c2)c2nccc(-c3cnc4ccccc4c3)c12 :: 180
CC(C)c1nn(-c2ccc(C(N)=O)cc2Cl)c2nccc(-n3cnc(-c4ccc(C(N)=O)cc4)c3)c12 :: 1010

Exercise: Need IC50 of CC(C)c1nn(-c2ccc(C(N)=O)c(N[C@H]3CC[C@H](O)CC3)c2)c2nccc(-c3cnc4[nH]ccc4c3)c12 , thanks.
Key: 430
